system: NCI/ADR-RES ovarian; assay: NCI tumour cell line growth inhibition, 48 h
metric_name: TGI

> print(dat)
                                    compound  metric.name  endpoint.result
 1  Cn1cc(S(=O)(=O)NC(=O)Nc2ccc(Cl)cc2)c(=O)c2ccc(F)cc21          TGI         > 100 µM
 2  Cc1cc(O)c(C2=NN(c3ccc(S(N)(=O)=O)cc3)C(/C=C/c3ccccc3)C2)cc1Cl (stereo unspecified)          TGI          22.7 µM
 3  CC1=Nc2c([nH]c(=S)[nH]c2=O)NC(c2c(Cl)cccc2Cl)C1 (stereo unspecified)          TGI         0.412 µM
 4  C=C1C(=O)OC2CC(C)C3C4OC4C(O)C3(C)C(O)C12 (stereo unspecified)          TGI          91.9 µM
 5  O=C(O)[C@H](CCC[C@H]1C(=O)O[C@H](c2ccccc2)[C@H](c2ccccc2)N1C(=O)OCc1ccccc1)N[C@@H](c1ccccc1)[C@H](O)c1ccccc1          TGI         > 100 µM
 6                        CCOC(=O)C1(C#N)CC1          TGI         > 100 µM
 7  CC(=O)OCC1OC(n2c(S)c(C#N)c(-c3ccccc3)c(C#N)c2=O)C(OC(C)=O)C(OC(C)=O)C1OC(C)=O (stereo unspecified)          TGI         > 100 µM
 8            Nc1nc(Cl)c(Cl)c(NCC2(O)CCC2)n1          TGI         > 100 µM
 9  CCCCOP(C)(=O)C(NC(=O)OCC)(C(F)(F)F)C(F)(F)F (stereo unspecified)          TGI         > 100 µM
10  COc1ccc(CCN2CCC(CN(C)Cc3cnn(-c4ccccc4)c3)CC2)cc1          TGI         > 100 µM
11  COc1cc2c(c(OC)c1OC)-c1ccc(N=NC(N)=S)c(=O)cc1[C@@H](NC(C)=O)CC2          TGI          49.1 µM
12   O=C1/C(=C/c2ccc(O)cc2)COc2ccc(O)c(O)c21          TGI         > 100 µM
13  CCOC(=O)c1c(SC(=O)c2ccc(OC)cc2)n(-c2ccccc2)c(=S)n(-c2ccccc2)c1=O          TGI         > 100 µM
14  Br[C@@H]1[C@H]2c3nc4ccccc4nc3[C@@H]1C[C@H]2Br          TGI         > 100 µM
15  C=Cn1c([N+](=O)[O-])cnc1/C=C/c1ccc(C(=O)OCCN2CCOCC2)cc1          TGI         > 100 µM
16      COc1ccccc1C1(c2c(OC)c(=O)c2=O)SCCCS1          TGI         > 100 µM
17  Cn1cc(C2=C(Nc3ccccc3)C(=O)NC2=O)c2ccccc21          TGI          > 25 µM
18  Cc1c2c(n(CC(c3ccccc3)c3ccccc3)c1C)NN=C(C#N)S2(=O)=O          TGI         > 100 µM
19       CC(=O)/C=C/c1ccc(OCc2ccc(Cl)cc2)cc1          TGI        > 1000 µM
20  OC1(c2ccc(Cl)cc2)c2ccccc2-c2nc3ccccc3n21 (stereo unspecified)          TGI         > 100 µM
21  COc1cc(OC)c2c(c1)OC(c1cccnc1)C(c1ccccc1)C2=O (stereo unspecified)          TGI         > 100 µM
22  CCN1CCC(CNC(=O)c2ccc(N)cc2)N1CC (stereo unspecified)          TGI         > 100 µM
23  Cl.Fc1c[c-]c(-c2ccccn2)c(F)c1.[Pt].c1ccc([PH+](C[PH+](c2ccccc2)c2ccccc2)c2ccccc2)cc1          TGI          5.84 µM
24  Cc1ccc(C2NC(=O)c3ccccc3N2)c(C)c1 (stereo unspecified)          TGI           6.5 µM
25  CN(C)c1ccc(/C=N/S(=O)(=O)c2ccc(-n3c(-c4ccccc4)nc4c(Br)cc(Br)cc4c3=O)cc2)cc1          TGI         > 100 µM
26  COc1ccccc1C(=O)NCC1CCCN2CCCCC12 (stereo unspecified)          TGI         > 100 µM
